The following substances are shown together with reported pKd values.
Test target: Ly49C natural killer domain (NKD), high-affinity mutant (V141K, S171G, E193G, R223K) (murine)
Test description: ITC
pKd (log units): -log10 of the concentration in mol/L.

>>> meas_value("H-2K^b in complex with the ovalbumin peptide (OVA; SIINFEKL) (from UniProt P01887) (peptide-MHC)")
5.72

Now for another entry.
## Task Answer with reported pKd of H-2K^b presenting the MMTV gp70 peptide (MMTV; ANYDFICV) (from UniProt P01887 21-119) (peptide-MHC)
## Result 5.10
